Reference source: patent US6201147A

- assay_system: Candida antarctica lipase (CAL-B, Chirazyme L-2) (Moesziomyces antarcticus, UniProt P41365)
- Construct: purchased Boehringer Mannheim, Penzberg, Germany
- Sequence (P41365 26-342): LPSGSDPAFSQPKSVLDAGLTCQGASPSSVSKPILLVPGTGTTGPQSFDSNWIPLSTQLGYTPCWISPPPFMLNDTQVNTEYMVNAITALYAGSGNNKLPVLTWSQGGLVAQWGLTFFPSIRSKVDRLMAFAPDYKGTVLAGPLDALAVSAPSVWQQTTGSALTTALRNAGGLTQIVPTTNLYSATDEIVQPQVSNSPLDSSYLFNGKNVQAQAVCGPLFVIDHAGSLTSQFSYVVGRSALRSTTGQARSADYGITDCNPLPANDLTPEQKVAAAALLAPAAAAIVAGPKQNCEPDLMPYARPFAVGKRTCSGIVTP
- method_summary: Lipase-catalyzed transesterification with n-hexanol in toluene
- Type: biochemical
- assay_context: transesterification with n-hexanol in toluene, 40° C., CAL-B; calculated according to Chen et al.
Collected E (enantioselectivity) values appear next to each entry.
property_name: E (enantioselectivity)

>>> df
                                   molecule  bound_type  value_observed
0  CCOC(=O)CC(C)c1ccccc1 (racemic) [(±)-8, Ethyl (±) -3-phenylbutyrate]           =             4.9
1  CCOC(=O)C(CC)c1ccccc1 (racemic) [(±)-6, Ethyl (±)-2-phenylbutyrate]           =             5.7
2  C=COC(=O)CC(C)c1ccccc1 (racemic) [(±)-5, Vinyl (±)-3-phenylbutyrate]           =              13
3  C=COC(=O)C(C)c1ccccc1 (racemic) [(±)-4, Vinyl (±)-2-phenylpropionate]           =              26
4  CCOC(=O)C(C)c1ccccc1 (racemic) [(±)-7, Ethyl (±)-2-phenylpropionate]           =             6.8
5  C=COC(=O)C(CC)c1ccccc1 (racemic) [(±)-3, Vinyl (±)-2-phenylbutyrate]           >             100
